# testDescription: Metabolic stability in Sprague-Dawley rat whole blood at 400 uCi after 2 hrs
# Assay type: ADME, tissue-based
# studyConditions: read-out: Stability
measuredParameter: remaining at 2 h, 400 uCi (%)

>>> df
                                   compound          measuredparameter  val
0  Cc1cc(N)nc(CC(C)[18F])c1 (stereo unspecified)  remaining at 2 h, 400 uCi   75

* * *

# measuredOn: Nitric oxide synthase 1 (Homo sapiens, UniProt P29475)
# Sequence (P29475 whole entry): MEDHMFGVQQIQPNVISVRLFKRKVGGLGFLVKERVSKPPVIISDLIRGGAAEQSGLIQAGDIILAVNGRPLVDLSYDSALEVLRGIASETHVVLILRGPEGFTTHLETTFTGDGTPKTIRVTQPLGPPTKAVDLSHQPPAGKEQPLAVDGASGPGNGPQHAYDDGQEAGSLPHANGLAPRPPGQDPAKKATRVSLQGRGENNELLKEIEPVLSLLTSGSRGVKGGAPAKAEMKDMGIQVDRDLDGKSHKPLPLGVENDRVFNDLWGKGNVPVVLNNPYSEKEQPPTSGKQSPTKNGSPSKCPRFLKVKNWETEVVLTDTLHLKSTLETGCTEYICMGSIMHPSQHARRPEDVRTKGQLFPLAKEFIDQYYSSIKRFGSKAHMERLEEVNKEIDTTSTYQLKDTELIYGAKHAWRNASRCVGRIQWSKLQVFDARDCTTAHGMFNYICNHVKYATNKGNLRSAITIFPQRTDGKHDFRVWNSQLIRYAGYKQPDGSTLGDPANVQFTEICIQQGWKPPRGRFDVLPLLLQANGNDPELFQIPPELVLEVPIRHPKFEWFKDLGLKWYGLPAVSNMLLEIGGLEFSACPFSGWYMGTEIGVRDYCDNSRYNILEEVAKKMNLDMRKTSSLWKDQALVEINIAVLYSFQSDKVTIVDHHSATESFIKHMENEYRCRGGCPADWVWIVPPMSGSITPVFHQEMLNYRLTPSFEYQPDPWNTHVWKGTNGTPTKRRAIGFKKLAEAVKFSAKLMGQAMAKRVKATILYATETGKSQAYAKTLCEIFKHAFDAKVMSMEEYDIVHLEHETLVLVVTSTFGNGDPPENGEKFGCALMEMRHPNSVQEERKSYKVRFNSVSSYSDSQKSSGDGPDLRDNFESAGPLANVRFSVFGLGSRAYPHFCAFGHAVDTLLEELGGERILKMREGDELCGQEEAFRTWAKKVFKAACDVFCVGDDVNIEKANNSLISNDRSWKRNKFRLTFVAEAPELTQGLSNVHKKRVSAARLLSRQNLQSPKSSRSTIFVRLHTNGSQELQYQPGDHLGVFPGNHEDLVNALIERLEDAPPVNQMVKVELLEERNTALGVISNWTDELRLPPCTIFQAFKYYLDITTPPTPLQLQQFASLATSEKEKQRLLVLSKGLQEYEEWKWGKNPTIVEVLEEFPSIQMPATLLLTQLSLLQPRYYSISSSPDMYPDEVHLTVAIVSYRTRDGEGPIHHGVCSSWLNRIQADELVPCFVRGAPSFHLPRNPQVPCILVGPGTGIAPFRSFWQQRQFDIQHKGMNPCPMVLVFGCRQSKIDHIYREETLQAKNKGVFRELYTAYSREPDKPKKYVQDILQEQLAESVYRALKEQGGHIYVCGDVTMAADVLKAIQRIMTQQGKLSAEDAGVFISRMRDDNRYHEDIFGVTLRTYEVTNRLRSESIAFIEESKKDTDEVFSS
# testDescription: Inhibition of human recombinant nNOS using 1 mM […] and 2 uM L-arginine after 30 mins
pIC50: −log10 of the molar value.
measuredParameter: pIC50

>>> df
           smilesrepr   val
0  Cc1cc(N)nc(CCCF)c1  6.29

* * *

# testDescription: Metabolic stability in Sprague-Dawley rat plasma assessed as parent compound remaining at 400 uCi, iv after 30 mins by HPLC
# Assay type: ADME, organism-based
# studyConditions: read-out: Stability
measuredParameter: remaining at 0.5 h

                                   compound    val
0  Cc1cc(N)nc(CC(C)[18F])c1 (stereo unspecified)  20.2%

* * *

# testDescription: Metabolic stability in Sprague-Dawley rat plasma assessed as parent compound remaining at 400 uCi, iv after 5 mins by HPLC
# Format: ADME, organism-based
# studyConditions: read-out: Stability
measuredParameter: remaining at 5 min (%)

                                   molecule   val
0  Cc1cc(N)nc(CC(C)[18F])c1 (stereo unspecified)  40.3
